# test.details: Comparative pharmacokinetics versus reference compounds, dog
# test.context: dog, in vivo, po, 2 mg/kg
measurement.type: half-life (h)
The figure you give is taken to be in h; do not add the unit.

QUERY: half-life for COc1ccc([C@H](C)NC(=O)N(O)C2CCN(C)CC2)c2ccccc12 [Reference 2] ?
RESULT: 11.8

----------
# test.details: Comparative pharmacokinetics versus reference compounds, dog
# test.context: dog, in vivo, iv, 1 mg/kg
measurement.type: half-life (min)
The figure you give is taken to be in min; do not add the unit.

QUERY: half-life for COc1ccc([C@H](C)NC(=O)N(O)C2CCN(C)CC2)c2ccccc12 [Reference 2] ?
RESULT: 1330
